target: Diacylglycerol lipase-beta (Mus musculus) (UniProt Q91WC9); test: mouse DAGLb inhibition, probe-labelling competition – biochemical, in-gel fluorescence, HEK293T membranes, overexpressed mouse DAGLb, set 1, late-stage follow-up (AID 602302); details: HEK293T membrane overexpressing mouse DAGLb, gel ABPP fluorescence; at 0.1 µM
Sequence (Q91WC9 whole entry, looked up): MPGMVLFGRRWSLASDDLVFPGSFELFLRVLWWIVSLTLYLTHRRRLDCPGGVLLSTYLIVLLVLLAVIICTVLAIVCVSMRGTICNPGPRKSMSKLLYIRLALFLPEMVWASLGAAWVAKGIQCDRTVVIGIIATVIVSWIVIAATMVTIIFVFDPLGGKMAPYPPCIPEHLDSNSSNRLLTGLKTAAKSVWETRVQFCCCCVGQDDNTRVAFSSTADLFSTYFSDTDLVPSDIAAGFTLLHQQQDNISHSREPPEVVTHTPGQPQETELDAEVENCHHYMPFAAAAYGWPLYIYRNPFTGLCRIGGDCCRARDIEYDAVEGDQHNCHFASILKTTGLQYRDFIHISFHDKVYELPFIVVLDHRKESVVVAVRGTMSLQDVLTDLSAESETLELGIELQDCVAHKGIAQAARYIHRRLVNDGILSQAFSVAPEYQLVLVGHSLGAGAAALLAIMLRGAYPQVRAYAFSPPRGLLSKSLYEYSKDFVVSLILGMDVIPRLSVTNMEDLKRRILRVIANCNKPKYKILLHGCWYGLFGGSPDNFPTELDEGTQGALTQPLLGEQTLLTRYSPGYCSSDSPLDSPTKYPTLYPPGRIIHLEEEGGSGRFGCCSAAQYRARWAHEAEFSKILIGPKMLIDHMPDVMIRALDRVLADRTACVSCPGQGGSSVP
Activity calls are given as the source filed them.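 How the source made its calls: active means inhibition of diacylglycerol lipase beta of at least 50% in a gel probe-labeling test; inactive means inhibition under 50%.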
Outcomes: yes (active), no (inactive)

1) O=C(N1CCCCC1Cc1ccccc1)n1cc(-c2ccc(Br)cc2)nn1 (stereo not given)
yes
2) O=C(N1CCCCC1Cc1ccccc1)n1cc(-c2ccc(-c3cccc(CO)c3)cc2)nn1 (stereo not given)
no
3) O=C(N1CCCCC1Cc1ccccc1)n1cc(-c2ccc(-c3ccccc3)cc2)nn1 (stereo not given)
yes
4) O=C(N1CCCCC1Cc1ccccc1)n1cc(-c2ccccc2-c2ccccc2)nn1 (stereo not given)
no
5) Cc1ccccc1-c1ccc(-c2cn(C(=O)N3CCCCC3Cc3ccccc3)nn2)cc1 (stereo not given)
yes
6) CC(C)CN(CCc1ccccc1)C(=O)n1cc(-c2ccc(OC(F)(F)F)cc2)nn1
yes
7) O=C(c1ccc(-c2cn(C(=O)N3CCCCC3Cc3ccccc3)nn2)cc1)N1CCCCC1 (stereo not given)
no
8) O=C(N1CCCCC1Cc1ccccc1)n1cc(-c2cccc(-c3ccccc3)c2)nn1 (stereo not given)
no
9) O=C(N1CCCCC1Cc1ccccc1)n1cc(-c2ccc(-c3ccccc3OC(F)(F)F)cc2)nn1 (stereo not given)
yes
10) O=C(N1CCCCC1Cc1ccccc1)n1cc(-c2ccc(-c3cccc(C(F)(F)F)c3)cc2)nn1 (stereo not given)
no
11) O=C(N1CCCCC1Cc1ccccc1)n1cc(-c2ccc(-c3ccccc3CO)cc2)nn1 (stereo not given)
yes
12) O=C(N(CCc1ccccc1)Cc1ccco1)n1cc(-c2ccc(OC(F)(F)F)cc2)nn1
yes
13) O=C(N1CCCCC1Cc1ccccc1)n1cc(-c2ccc(-c3ccc(OC(F)(F)F)cc3)cc2)nn1 (stereo not given)
no
14) O=C(N1CCCCC1Cc1ccccc1)n1ncc(C(O)(c2ccccc2)c2ccccc2)n1 (stereo not given)
no
15) O=C(N1CCCCC1Cc1ccccc1)n1cc(-c2ccc(OC(F)(F)F)cc2)nn1 (stereo not given)
yes
16) O=C(N1CCCCC1Cc1ccccc1)n1cc(-c2cc(F)cc(F)c2)nn1 (stereo not given)
yes
17) CC(C)(C)OC(=O)NCCCCCN(CCc1ccccc1)C(=O)n1cc(-c2ccc(OC(F)(F)F)cc2)nn1
yes
18) O=C(N1CCCCC1Cc1ccccc1)n1cc(-c2ccc(-c3ccc(C(F)(F)F)cc3)cc2)nn1 (stereo not given)
no
19) O=C(N1CCCCC1Cc1ccccc1)n1cc(-c2ccc(-c3ccccc3Cl)cc2)nn1 (stereo not given)
yes
20) COc1ccccc1-c1ccc(-c2cn(C(=O)N3CCCCC3Cc3ccccc3)nn2)cc1 (stereo not given)
yes

###

molecular target: Diacylglycerol lipase-beta (Mus musculus) (UniProt Q91WC9); assay: mouse DAGLb inhibition, probe-labelling competition – biochemical, in-gel fluorescence, HEK293T membranes, overexpressed mouse DAGLb, set 1, late-stage follow-up (AID 602302); conditions: HEK293T membrane overexpressing mouse DAGLb, gel ABPP fluorescence; at 0.1 µM; stronger effect = higher value
Here the recorded inhibition is given for each entry.
test readout: inhibition (%)

1. O=C(N1CCCCC1Cc1ccccc1)n1ncc(-c2ccc(OC(F)(F)F)cc2)n1 (stereo not given)
0
2. O=C(N1CCCCC1Cc1ccccc1)n1cc(-c2ccc(-c3ccoc3)cc2)nn1 (stereo not given)
52
3. O=C(N1CCCCC1Cc1ccccc1)n1cc(-c2ccc(-c3ccc4c(c3)OCO4)cc2)nn1 (stereo not given)
18
4. O=C(c1ccc(-c2ccc(-c3cn(C(=O)N4CCCCC4Cc4ccccc4)nn3)cc2)cc1)N1CCCCC1 (stereo not given)
10
5. O=C(N1CCCCC1Cc1ccccc1)n1cc(-c2ccc(-c3ccccc3C(F)(F)F)cc2)nn1 (stereo not given)
59
